B1: Azoarcus group I ribozyme (parent)
chain: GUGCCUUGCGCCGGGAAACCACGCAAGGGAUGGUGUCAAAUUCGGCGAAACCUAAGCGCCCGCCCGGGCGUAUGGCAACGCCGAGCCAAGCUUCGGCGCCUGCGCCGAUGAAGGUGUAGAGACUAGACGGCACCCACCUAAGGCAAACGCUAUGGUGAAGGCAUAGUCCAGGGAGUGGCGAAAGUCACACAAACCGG

# Variants of: B1
# protocol details: reverse-splicing fitness (ratio to wild type); higher = more active; in vitro selection; Mg2+ level not given
value type: reverse-splicing fitness
The reply should be a number, written without any unit.

(Q) Suppose we examine the variant C82U A111U A120G A145U C169A U176G ; what reverse-splicing fitness value has been reported?
(A) 0.00391

(Q) How about this variant: "U176A"
(A) 0.87

(Q) How about this variant: C82U A111G A145C C169U
(A) 0.00982

(Q) How about this variant: C82G A111G A120C A145U C169U U176C
(A) 0.0124

(Q) How about this variant: A111C A145G C150A C169A U176A
(A) 0.0169

(Q) How about this variant: C82A A111U A120U C169G U176A
(A) 0.00417

(Q) How about this variant: A111U C150U C169U U176C
(A) 0.0237

(Q) How about this variant: C82U A111C A120C A145G C150G C169U U176C
(A) 0.0122

(Q) How about this variant: C82A A111C A145U C150U C169U
(A) 0.0128

(Q) How about this variant: C82A A120U A145U C169A U176A
(A) 0.00216

(Q) How about this variant: A111G A145U C150U C169G
(A) 0.0749

(Q) How about this variant: C82U A111G A120C C169U U176A
(A) 0.0149

(Q) How about this variant: A111G A120U A145U C150G C169A U176C
(A) 0.00355

(Q) How about this variant: C82G A120G U176C
(A) 0.0208

(Q) How about this variant: C82G A111G A120G C150G C169A U176C
(A) 0.0135

(Q) How about this variant: C82A A111U A120G A145G C150G C169U U176C
(A) 0.013

(Q) How about this variant: A111G A145C C169G U176A
(A) 0.0344

(Q) How about this variant: C82A A111U A145C C150U C169G
(A) 0.00788

(Q) How about this variant: C82U A111G A120G C169U U176A
(A) 0.023

(Q) How about this variant: C82U A120G C150A C169U U176G
(A) 0.00606

(Q) How about this variant: A111C A120C A145C C150A C169U U176C
(A) 0.0108

(Q) How about this variant: C82G A111G A120G C169G U176C
(A) 0.0232

(Q) How about this variant: C82A A111C A145G C150A C169G U176G
(A) 0.0087

(Q) How about this variant: C82A A111U A120C A145G C150U
(A) 0.0255

(Q) How about this variant: C82U A111G A145U C150G C169G U176A
(A) 0.00668

(Q) How about this variant: C82U A145U C150U C169A U176G
(A) 0.0048

(Q) How about this variant: C82A A111G C150A C169U U176C
(A) 0.014

(Q) How about this variant: C82G A145C C150U C169A U176C
(A) 0.00579

(Q) How about this variant: C82U A111G A145U C150U C169U U176A
(A) 0.0117

(Q) How about this variant: A111C A120C A145G C150A C169U U176G
(A) 0.00728

(Q) How about this variant: C82U A111G A120C C150A C169A U176A
(A) 0.0215

(Q) How about this variant: C82G A111U A120U C150A C169U U176A
(A) 0.00604

(Q) How about this variant: C82U A111C A120G C150U C169G U176G
(A) 0.00441

(Q) How about this variant: C82A A111C A145U C169A
(A) 0.0078

(Q) How about this variant: C82G A111U A120C A145U C150U C169U U176C
(A) 0.0137

(Q) How about this variant: C82G A111G A120U A145U C150U
(A) 0.04

(Q) How about this variant: A111G A120U A145G C150U C169U U176C
(A) 0.0273

(Q) How about this variant: C82U A111C A120C A145C C150U C169G
(A) 0.00644

(Q) How about this variant: C82U A111G A145G C150G C169A U176C
(A) 0.0111

(Q) How about this variant: C82U A120C A145C C169A U176C
(A) 0.00368

(Q) How about this variant: A111U A120U A145C C150A C169U
(A) 0.00469

(Q) How about this variant: A111C C150U C169G U176A
(A) 0.014

(Q) How about this variant: C82U A111U A120C A145C C150U C169G
(A) 0.00639

(Q) How about this variant: C82A A111U A120C A145C C169G U176A
(A) 0.0334

(Q) How about this variant: C82G A111U A120C A145C C150G U176A
(A) 0.00451

(Q) How about this variant: C82G A111C A120U A145G C150A C169G U176C
(A) 0.00534

(Q) How about this variant: A120G A145G C150U C169G U176G
(A) 0.00838

(Q) How about this variant: C82A A111G A120G A145G C150U C169U U176G
(A) 0.00632

(Q) How about this variant: C82U A111U A120C A145G C150U C169U U176G
(A) 0.00474

(Q) How about this variant: C82U A120G C150G U176C
(A) 0.00821

(Q) How about this variant: C82U A111C A145C C150A U176G
(A) 0.00685

(Q) How about this variant: C82G A111G A120C A145U C150G C169A
(A) 0.00918

(Q) How about this variant: C82A A111C A120U A145U C150U C169A U176A
(A) 0.00334

(Q) How about this variant: C82A A111C A120U C150G C169A
(A) 0.00857

(Q) How about this variant: A111U A120U A145U C150U C169G U176A
(A) 0.00542

(Q) How about this variant: C82A A111U A120G A145C C150A C169U U176C
(A) 0.0122

(Q) How about this variant: C82A A111U A145G C150A C169U U176C
(A) 0.0161

(Q) How about this variant: C82G A120G A145C C150G C169G U176A
(A) 0.00772

(Q) How about this variant: C82A A111C A145U C150U C169A
(A) 0.00867

(Q) How about this variant: C82A A111G A145G C150G C169U U176C
(A) 0.0123

(Q) How about this variant: C82A A111U A120G A145G C150U C169U U176A
(A) 0.0181

(Q) How about this variant: A111U C150U C169G
(A) 0.0372

(Q) How about this variant: A111U A120U A145U C150A C169G U176A
(A) 0.00269

(Q) How about this variant: C82G A111G A120G A145C C150U C169A U176C
(A) 0.00841

(Q) How about this variant: C82A A111G A120C A145U C150A C169G U176G
(A) 0.00642

(Q) How about this variant: C82G A111U A145C C150U U176C
(A) 0.0544

(Q) How about this variant: A111C A145G C150G C169A U176C
(A) 0.011

(Q) How about this variant: C82A A111G A120G A145G C150A C169U U176C
(A) 0.0184

(Q) How about this variant: C82G A120U A145C C169G U176G
(A) 0.00141

(Q) How about this variant: A120C A145C C150A U176A
(A) 0.112

(Q) How about this variant: C82U A111C A120C A145C C150A C169U
(A) 0.00906

(Q) How about this variant: C82G A111C A120U A145C C150G C169U U176A
(A) 0.00358

(Q) How about this variant: C82A A120C A145G C150U C169U
(A) 0.019

(Q) How about this variant: C82A A120U A145U
(A) 0.148

(Q) How about this variant: A111U A120C A145U C150U U176C
(A) 0.248

(Q) How about this variant: C82U A111G A120G A145U C150G C169A U176A
(A) 0.00905

(Q) How about this variant: C82G A111C A120C A145C C150G C169G
(A) 0.00653

(Q) How about this variant: C82U A111C A120G A145G C169A U176A
(A) 0.0193

(Q) How about this variant: C82U A111G A120U A145C C150U C169G U176G
(A) 0.00171

(Q) How about this variant: C82U A111G A120U A145U C169U U176G
(A) 0.0016

(Q) How about this variant: C82G A111U A120C A145C C150G C169G U176C
(A) 0.00909

(Q) How about this variant: C82A A111G A120C C150G
(A) 0.0106

(Q) How about this variant: C82G A120U C150U C169U
(A) 0.00575

(Q) How about this variant: A111C A120U A145C C169U U176G
(A) 0.00215

(Q) How about this variant: A111U A145G C150U C169G U176G
(A) 0.00671

(Q) How about this variant: C82G A111C A145C C150U C169A
(A) 0.00808

(Q) How about this variant: C82G C169U U176C
(A) 0.0165

(Q) How about this variant: C82G A111U A120G A145G C150G
(A) 0.00786

(Q) How about this variant: C82A A111C A120U A145U C150A C169U U176A
(A) 0.00378

(Q) How about this variant: C82G A111G A145C C169G U176G
(A) 0.00501

(Q) How about this variant: C82G A111G A120C C169U U176G
(A) 0.00596
